System: HCT-15 colon
Experiment: NCI tumour cell line growth inhibition, 48 h
The following molecules are listed with their measured TGI values.

For orientation, consider the following solved cases.
{"columns": ["Molecule", "Study Target", "Recorded Metric", "Measured"],
 "data": [
  ["COC[C@H]1C(=O)NCC(=O)N2N=CCC[C@H]2C(=O)N(O)[C@H](C)C(=O)O[C@@H](C(C)C)[C@H](NC(=O)[C@@](C)(O)[C@]2(O)CC[C@@H](CC(C)C)[C@H](C)O2)C(=O)N2NCCC[C@@H]2C(=O)N1O", "HCT-15 colon", "TGI", "0.253 µM"],
  ["CC1=C(C#N)C(/C=C(\\Cl)c2ccc(F)cc2)C(C#N)=C(C)N1", "HCT-15 colon", "TGI", "> 100 µM"],
  ["COc1ccc(C2C3=C(COC3=O)OC(C)(C)Oc3cc4c(cc32)OCO4)cc1OC (centres undefined)", "HCT-15 colon", "TGI", "> 100 µM"],
  ["NS(=O)(=O)c1nnc(NS(=O)(=O)c2ccc([N+](=O)[O-])cc2)s1", "HCT-15 colon", "TGI", "> 100 µM"],
  ["O=C(Nc1ccc2cc3ccccc3cc2c1)c1cc2c(cc1Cl)Sc1nccn1S2(=O)=O", "HCT-15 colon", "TGI", "> 100 µM"],
  ["c1cc[c]([Sn]([O]c2cccc3cccnc23)([O]c2cccc3cccnc23)[c]2ccccc2)cc1", "HCT-15 colon", "TGI", "0.377 µM"]
]}

Consider the record given below.
**Q:** Request body: readout TGI, system HCT-15 colon, query CCc1nn2ncccc2c1-c1ccnc(NC2CC2)n1 . Return the value.
**A:** > 25 µM
